- ASSAY TEXT: activity coefficient (dimensionless); of the first substance listed, at infinite dilution; xn = mol fraction of the nth substance listed
- CONDITION DESCRIPTION: 358.15 K; Liquid; Chromatography; x1 = 0
Listed next: entries and their corresponding activity coefficient.

Solved cases below.
Cc1ccccc1C [1,2-dimethylbenzene] + CC(C)C[P+](C)(CC(C)C)CC(C)C.Cc1ccc(S(=O)(=O)[O-])cc1: 2.03
CCCCO [butan-1-ol] + CC(C)C[P+](C)(CC(C)C)CC(C)C.Cc1ccc(S(=O)(=O)[O-])cc1: 0.33
C1CCOC1 [tetrahydrofuran] + CC(C)C[P+](C)(CC(C)C)CC(C)C.Cc1ccc(S(=O)(=O)[O-])cc1: 1.05
CCO [ethanol] + CC(C)C[P+](C)(CC(C)C)CC(C)C.Cc1ccc(S(=O)(=O)[O-])cc1: 0.268
Cc1cccc(C)c1 [1,3-dimethylbenzene] + CC(C)C[P+](C)(CC(C)C)CC(C)C.Cc1ccc(S(=O)(=O)[O-])cc1: 2.27
CCCCCO [pentan-1-ol] + CC(C)C[P+](C)(CC(C)C)CC(C)C.Cc1ccc(S(=O)(=O)[O-])cc1: 0.354

QUERY: Could you tell me which activity coefficient is on file for CCCO [propan-1-ol] + CC(C)C[P+](C)(CC(C)C)CC(C)C.Cc1ccc(S(=O)(=O)[O-])cc1 ?
RESULT: 0.299

QUERY: CCc1ccccc1 [ethylbenzene] + CC(C)C[P+](C)(CC(C)C)CC(C)C.Cc1ccc(S(=O)(=O)[O-])cc1 , same question.
RESULT: 2.16

QUERY: Cc1ccc(C)cc1 [1,4-dimethylbenzene] + CC(C)C[P+](C)(CC(C)C)CC(C)C.Cc1ccc(S(=O)(=O)[O-])cc1 , same question.
RESULT: 2.24

QUERY: CO [methanol] + CC(C)C[P+](C)(CC(C)C)CC(C)C.Cc1ccc(S(=O)(=O)[O-])cc1 , same question.
RESULT: 0.178

QUERY: c1ccccc1 [benzene] + CC(C)C[P+](C)(CC(C)C)CC(C)C.Cc1ccc(S(=O)(=O)[O-])cc1 , same question.
RESULT: 1.2

QUERY: COC(C)(C)C [2-methoxy-2-methylpropane] + CC(C)C[P+](C)(CC(C)C)CC(C)C.Cc1ccc(S(=O)(=O)[O-])cc1 , same question.
RESULT: 4.16

QUERY: O [water] + CC(C)C[P+](C)(CC(C)C)CC(C)C.Cc1ccc(S(=O)(=O)[O-])cc1 , same question.
RESULT: 0.492

QUERY: Cc1ccccc1 [toluene] + CC(C)C[P+](C)(CC(C)C)CC(C)C.Cc1ccc(S(=O)(=O)[O-])cc1 , same question.
RESULT: 1.64

QUERY: c1ccsc1 [thiophene] + CC(C)C[P+](C)(CC(C)C)CC(C)C.Cc1ccc(S(=O)(=O)[O-])cc1 , same question.
RESULT: 0.804
